Measured Ratio of individual entries
# Tested on: Plasmodium falciparum
# protocol_summary: MMV: Compounds (1uM) were screened in a 72hr growth assay monitored by flow cytometry both in the presence and absence of supplemental isopentenyl pyrophosphate (IPP) 200uM. Compounds which fail to show anti-malarial activity when chemically rescued by IPP are therefore specific to the apicoplast. The values are expressed as the ratio of the corresponding activity with and without IPP, respectively.
# Format: functional, W2
readout_label: Ratio

compound: COc1ccc(N2CCN(C(CNC(=O)C3CCCCC3)c3ccc4c(c3)OCO4)CC2)cc1 (configuration not stated)
val: 0.9206

compound: COc1ccc(CCN2C(=O)c3[nH]nc(-c4cc(Cl)c(C)cc4O)c3C2c2ccccc2F)cc1 (configuration not stated)
val: 0.7742

compound: c1ccc2c(NCCc3c[nH]c4ccccc34)c3ccccc3nc2c1
val: 1.057

compound: CCOc1cc2c(cc1OCC)C(c1cc(C)c(O)c(C)c1)NCC2.Cl (configuration not stated)
val: 1.148

compound: COc1cccc(Nc2nc(NCCO)c3ccccc3n2)c1.Cl
val: 0.7297

compound: COc1cc(CNCCc2ccc(Cl)cc2)cc(OC)c1O
val: 0.9459

compound: Cl.Cn1c(=O)n(C)c2cc(CNCCNc3ccnc4cc(Cl)ccc34)ccc21
val: 1.09

compound: Cl.c1ccc2c(NCCCCCCNc3c4c(nc5ccccc35)CCCC4)c3c(nc2c1)CCCC3
val: 1.108

compound: Oc1c(CN2CCN(c3ccccc3F)CC2)cc(Br)c2cccnc12
val: 0.8919

compound: Brc1ccc(Nc2nc3ccccc3nc2Nc2ccc(Br)cc2)cc1
val: 0.8871

compound: COC(=O)c1ccc(C2C3=C(O)CC(c4ccc(F)cc4)CC3=Nc3ccccc3N2C(=O)c2ccccc2)cc1 (configuration not stated)
val: 0.9016

compound: COc1cc(OC)c(N(C)C(=O)c2cc3c(s2)-c2ccccc2S(=O)(=O)C3)cc1Cl
val: 1

compound: CCOc1ccc(Nc2c3ccccc3nc3ccccc23)cc1.Cl
val: 1

compound: c1ccc(/C2=N/c3ccccc3/N=C(/c3ccccc3)c3ccccc32)cc1
val: 0.807

compound: CCOC(=O)C1=C(C)N=c2sc(=Cc3ccccc3O)c(=O)n2C1c1ccc(OC)c2ccccc12 (configuration not stated)
val: 1.667

compound: COCCn1c(C)nc2ccccc2c1=O
val: 0.9589

compound: Nc1nc(Nc2cccc(F)c2)nc2ccccc12
val: 1.176

compound: COc1ccc(-c2cc3c(SCC(=O)Nc4cc(C(F)(F)F)ccc4Cl)nccn3n2)cc1
val: 0.9714

compound: CCOc1ccc(-c2nonc2NC(=O)c2cccc(C)c2)cc1OCC
val: 0.6977

compound: CCN1CCN(c2cc(C)c3cc(NC(=O)c4ccc(OC)c(OC)c4)ccc3n2)CC1
val: 0.8308

compound: CCCCc1c(C)nc2c(OC)cccc2c1O
val: 0.8472

compound: Clc1ccc2[nH]c3c(NCCCN4CCOCC4)ncnc3c2c1
val: 0.9836

compound: CC(C)(C)c1ccc(C(=O)Nc2c3c(nn2-c2cccc(Cl)c2)CSC3)cc1
val: 0.9138

compound: COc1ccc(-c2nc3cc(Cc4ccc5[nH]c(-c6ccc(OC)cc6)nc5c4)ccc3[nH]2)cc1
val: 1.389

compound: COc1ccc2sc(N(Cc3cccnc3)C(=O)c3ccc(C#N)cc3)nc2c1
val: 0.8548

compound: CCn1c(CN2CCN(Cc3ccccc3)CC2)nc2cc(NC(=O)c3cccs3)ccc21
val: 0.8481

compound: COc1ccc(-c2nc(NC(=O)CS(=O)(=O)c3ccc(F)cc3)sc2C)cc1
val: 0.8289

compound: O=C(NC1CCN(Cc2ccccc2)CC1)c1cc(C(=O)NC2CCN(Cc3ccccc3)CC2)cc(C(=O)NC2CCN(Cc3ccccc3)CC2)c1
val: 1.119

compound: CCOC(=O)c1cnc2c(C)cccc2c1Nc1ccc(C(C)=O)cc1
val: 1.3

compound: COc1cccc(C2(C)Nc3ccccc3-c3nc4ccccc4n32)c1 (configuration not stated)
val: 1.163

compound: CCN(CC)CCNc1ccnc2cc(Cl)ccc12
val: 0.8734

compound: Br.Cc1ccc(C)c(-c2csc(Nc3ccc(C)c(C)c3)n2)c1
val: 1.048

compound: COc1ccccc1N1CCN(C(CNS(=O)(=O)c2ccc(Cl)cc2)c2cccnc2)CC1 (configuration not stated)
val: 0.8506

compound: O=C(NCCCN1CCC(N2CCCCC2)CC1)C1=Cc2cc(Br)ccc2OC1
val: 0.8966

compound: c1ccc(CNc2nc(Nc3ccccc3)nc3ccccc23)cc1
val: 1

compound: Cc1ccc(Cn2c(N3CCC(C(=O)NCc4cccs4)CC3)nc3ccccc32)cc1
val: 1.032

compound: COc1ccccc1NC1=C(N2CCCCC2)C(=O)c2ccccc2C1=O
val: 0.9344

compound: COc1ccc(Nc2nc(NCc3ccccc3)c3ccccc3n2)cc1
val: 1.093

compound: COc1ccc(Nc2nc(N/N=C/c3ccc(O)cc3)nc(Nc3ccc([N+](=O)[O-])cc3)n2)cc1
val: 1.812

compound: CCOC(=O)c1cn(CC)c2cc(N3CCCCC3)c(F)cc2c1=O
val: 0.6824

compound: COc1cc(-c2nc(-c3ccc(Sc4ccccc4)cc3)c(-c3ccccc3)[nH]2)cc(OC)c1O
val: 1.071

compound: COc1nc(Nc2ccc(C(C)C)cc2)nc(OC)n1
val: 0.9479
